The reported measurements were obtained from patent US20110039857A1.

SYSTEM_UNDER_TEST: human orexin-2 receptor (Homo sapiens)
Construct: expressed in transfected cells; host or cells: CHO (Chinese hamster ovary) cells under G418 selection
Sequence (O43614 whole entry): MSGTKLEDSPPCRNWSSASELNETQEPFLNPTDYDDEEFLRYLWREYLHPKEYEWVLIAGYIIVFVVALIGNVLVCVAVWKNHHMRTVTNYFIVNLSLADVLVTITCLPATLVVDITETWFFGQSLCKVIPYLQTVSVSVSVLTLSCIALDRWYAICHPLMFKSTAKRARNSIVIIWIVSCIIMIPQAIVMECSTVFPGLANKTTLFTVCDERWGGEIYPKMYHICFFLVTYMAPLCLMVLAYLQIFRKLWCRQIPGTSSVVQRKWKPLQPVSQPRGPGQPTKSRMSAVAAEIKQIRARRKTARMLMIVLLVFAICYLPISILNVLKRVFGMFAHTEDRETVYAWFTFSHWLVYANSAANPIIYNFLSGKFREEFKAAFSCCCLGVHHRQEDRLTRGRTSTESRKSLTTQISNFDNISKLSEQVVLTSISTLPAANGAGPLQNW
ASSAY_PROTOCOL: Intracellular calcium measurements (FLIPR), orexin receptor antagonistic activity
Format: cell-based
MEASUREMENT_SETUP: CHO cells expressing human orexin-2 receptor; agonist 3 nM orexin-A; read-out: OX2 IC50
EXPERIMENTAL_READOUT: IC50 (nM)

>>> df
                               smiles_entry  experimental_readout  observed_value
0  Cc1ccc(-c2ccccc2C(=O)N2CCC[C@@H](Nc3cnc4ccccc4n3)C2)cc1C                  IC50              11

1 = COc1cc(OC)nc(N[C@@H]2CCCN(C(=O)c3ccccc3-c3ccc(C)c(C)c3)C2)n1
2 = Cc1cccc(-c2ccccc2C(=O)N2CCC[C@@H](NC(=O)c3nn(C)c4ccccc34)C2)c1
3 = Cc1ccc(-c2ccccc2C(=O)N2CCC[C@@H](Nc3nccc(C(F)(F)F)n3)C2)cc1C
4 = Cc1ccc(-c2ccccc2C(=O)N2CCC[C@@H](NC(=O)c3cn(C)c4ccccc34)C2)cc1C
Sort the compounds on IC50; start with the lowest figure. Use the labels to give the ranking in the order requested.
1, 2, 4, 3
(1: 10 nM, 2: 15 nM, 4: 25 nM, 3: 43 nM)

----------
SYSTEM_UNDER_TEST: human orexin-1 receptor (Homo sapiens, UniProt O43613)
Sequence (O43613 1-425): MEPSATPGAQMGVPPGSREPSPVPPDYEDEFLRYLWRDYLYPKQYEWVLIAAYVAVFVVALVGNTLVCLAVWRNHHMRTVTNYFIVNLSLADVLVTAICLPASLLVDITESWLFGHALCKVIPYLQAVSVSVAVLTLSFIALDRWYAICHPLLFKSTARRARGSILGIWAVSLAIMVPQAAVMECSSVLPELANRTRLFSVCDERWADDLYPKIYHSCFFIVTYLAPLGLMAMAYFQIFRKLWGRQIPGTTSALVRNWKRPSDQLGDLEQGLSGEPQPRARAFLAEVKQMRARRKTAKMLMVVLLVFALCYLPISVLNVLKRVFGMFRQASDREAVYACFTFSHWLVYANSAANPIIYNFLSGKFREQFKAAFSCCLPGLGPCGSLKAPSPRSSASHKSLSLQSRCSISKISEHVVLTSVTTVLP
ASSAY_PROTOCOL: Intracellular calcium measurements (FLIPR), orexin receptor antagonistic activity
MEASUREMENT_SETUP: CHO cells expressing human orexin-1 receptor; agonist 3 nM orexin-A; read-out: OX1 IC50
EXPERIMENTAL_READOUT: IC50 (nM)

>>> print(df.to_string())
                                   compound                         system_under_test  units  observed_value
0  Cc1cccc(-c2ccccc2C(=O)N2CCC[C@@H](NC(=O)c3nn(C)c4ccccc34)C2)c1 [Example 34]  human orexin-1 receptor (Homo sapiens, UniProt O43613)     nM              33

a = Cc1ccc(-c2ccccc2C(=O)N2CCC[C@@H](Nc3cnc4ccccc4n3)C2)cc1C [Example 6]
b = COc1cc(OC)nc(N[C@@H]2CCCN(C(=O)c3ccccc3-c3ccc(C)c(C)c3)C2)n1 [Example 2]
c = Cc1ccc(-c2ccccc2C(=O)N2CCC[C@@H](Nc3nccc(C(F)(F)F)n3)C2)cc1C [Example 1]
Rank by IC50 (largest to smallest). Rank the items, then write their labels in that order.
c, b, a
